Numbers sourced from patent US8697709B2.

# assay_system: UniProt:P00523
# test_description: In vitro kinase assay (32P peptide phosphorylation), WT Src
# Assay type: biochemical
# test_context: Table 1b; read-out: IC50 WT Src
Would you kindly list IC50 for each of these compounds?

Per the reported UniProt:P00523 data, Nc1ncnc2c1c(-c1ccc(NC(=O)c3cccc(C(F)(F)F)c3)cc1)nn2[C@H]1CCNC1 has IC50 of > 5000 nM

For CC(C)n1nc(-c2ccc(NC(=O)c3cccc(C(F)(F)F)c3)cc2)c2c(N)ncnc21 on UniProt:P00523, measured IC50 was 1000 to 5000 nM

The reported UniProt:P00523 IC50 of CC(C)n1nc(-c2cccc(NC(=O)c3cccc(C(F)(F)F)c3)c2)c2c(N)ncnc21 is 1000 to 5000 nM

Sample Nc1ncnc2c1c(-c1ccc(NC(=O)c3cccc(C(F)(F)F)c3)cc1)nn2CCCO , system: UniProt:P00523. Its IC50 is > 5000 nM

Recorded IC50 for CC(C)n1nc(-c2ccc(NC(=O)Nc3cccc(C(F)(F)F)c3)cc2)c2c(NC(=O)C3CCCC3)ncnc21 on UniProt:P00523 was < 1000 nM

Simply: Nc1ncnc2c1c(-c1ccc(NC(=O)Nc3cccc(C(F)(F)F)c3)cc1)nn2[C@@H]1CCOC1 , UniProt:P00523, IC50 = 1000 to 5000 nM

The compound CC(C)n1nc(-c2ccc(NC(=O)Nc3cccc(C(F)(F)F)c3)cc2)c2c(NC(=O)c3ccc(C(C)(C)C)cc3)ncnc21 , tested on UniProt:P00523, showed IC50 of > 5000 nM

Observed IC50 on UniProt:P00523, entry Nc1ncnc2c1c(-c1ccc(NC(=O)Nc3cccc(C(F)(F)F)c3)cc1)nn2[C@H]1CCOC1 , equals < 1000 nM

Entry Nc1ncnc2c1c(-c1ccc(NC(=O)c3cccc(C(F)(F)F)c3)cc1)nn2[C@@H]1CCNC1 , tested on UniProt:P00523, has a reported IC50 of > 5000 nM

Value sought: IC50, system UniProt:P00523, item CC(C)n1nc(-c2ccc(NC(=O)Nc3cccc(C(F)(F)F)c3)cc2)c2c(N)ncnc21 . Result: < 1000 nM

The observed IC50 for Nc1ncnc2c1c(-c1ccc(NC(=O)c3cccc(C(F)(F)F)c3)cc1)nn2[C@@H]1CCOC1 when tested with UniProt:P00523 stands at > 5000 nM

Here Nc1ncnc2c1c(-c1ccc(NC(=O)c3cccc(C(F)(F)F)c3)cc1)nn2[C@H]1CCOC1 was tested on UniProt:P00523, and its IC50 came to < 1000 nM

For CC(C)n1nc(-c2ccc(NC(=O)Nc3ccccc3)cc2)c2c(N)ncnc21 on UniProt:P00523, measured IC50 was < 1000 nM

// returns IC50 for Nc1ncnc2c1c(-c1ccc(NC(=O)Nc3cccc(C(F)(F)F)c3)cc1)nn2CCCO with UniProt:P00523; value = < 1000 nM

Tested system UniProt:P00523; IC50 recorded for CC(C)n1nc(-c2ccc(NC(=O)Nc3cccc(C(F)(F)F)c3)cc2)c2c(NC(=O)C3CC3)ncnc21 was < 1000 nM

Field IC50 (UniProt:P00523), entry CC(C)n1nc(-c2cccc(NC(=O)Nc3cccc(C(F)(F)F)c3)c2)c2c(N)ncnc21 : 1000 to 5000 nM
